Listing of entries alongside the reported protein stability index.
assay.protocol: protein stability index of a GFP-peptide fusion (yeast GPS) (PSI 1-4); higher = more stable; sorted into four equal gates, so the index is relative within each strain
condition.context: ubr1∆
assay.readout: protein stability index

In [3]: df
Out[3]:
                        sequence_chain            assay_readout  value_reported
 0            DLKFKRHKNKHIQGFPT [DSN1]  protein stability index            2.98
 1            VELLDSNDRVNPLIELT [ITC1]  protein stability index            3.02
 2            NSIRAREVENSVSLLNS [SMC1]  protein stability index            3.08
 3            MLRTVTSKTVSNQFKRS [COR1]  protein stability index            3.02
 4            SRKRKPKSASNTSSKRQ [IRR1]  protein stability index            3.09
 5            MNEMCKKINAKEKLIGW [RPN8]  protein stability index            3.08
 6            SNRLHPPDIHPNLGPQL [GRR1]  protein stability index            2.98
 7            YESQTFSSKNEWRKSAI [PRP8]  protein stability index            3.01
 8           TAILQRQLQYETLGDIL [ECM29]  protein stability index            3.02
 9    NTEEKAELQSNLQVELL [YGL100W/SEH1]  protein stability index            2.74
10           KFNAAPEENATEGPSDK [SNF12]  protein stability index            3.26
11            TGISQKSMSILNSFVND [HTB1]  protein stability index            2.67
12            SQPSKKSFANHTEDEQI [SIR4]  protein stability index            2.83
13            GILDEIMFNHARIIRSE [RGR1]  protein stability index            3.07
14           QMMQQAQQKLKQNPGLM [SRP54]  protein stability index            3.12
15            GIIITDQSNVQYYLSVL [BRR2]  protein stability index            3.01
16          RVVVPQALRVLRLKPGR [RPL16B]  protein stability index            1.77
17            IDRPKHELSRAELEELE [SMD2]  protein stability index            3.38
18           AVSRSMTDIWNTLIPES [ECM29]  protein stability index            3.03
19   MNAGGLFGAKPQNTTAT [YGR119C/NUP57]  protein stability index            2.72
20  TKIKDAEEDSLLSGEDL [YJL039C/NUP192]  protein stability index            3.38
21           VVRRRFRGNISQPKIGY [RPL32]  protein stability index            2.92
22            IDRNSTILYLNVFHGLC [IRR1]  protein stability index            2.78
23    EKADYERELISNIEQTE [YIL149C/MLP2]  protein stability index             3.6
